- studyTarget: CYP2C19 (Homo sapiens, UniProt P33261)
- Sequence (P33261 whole entry): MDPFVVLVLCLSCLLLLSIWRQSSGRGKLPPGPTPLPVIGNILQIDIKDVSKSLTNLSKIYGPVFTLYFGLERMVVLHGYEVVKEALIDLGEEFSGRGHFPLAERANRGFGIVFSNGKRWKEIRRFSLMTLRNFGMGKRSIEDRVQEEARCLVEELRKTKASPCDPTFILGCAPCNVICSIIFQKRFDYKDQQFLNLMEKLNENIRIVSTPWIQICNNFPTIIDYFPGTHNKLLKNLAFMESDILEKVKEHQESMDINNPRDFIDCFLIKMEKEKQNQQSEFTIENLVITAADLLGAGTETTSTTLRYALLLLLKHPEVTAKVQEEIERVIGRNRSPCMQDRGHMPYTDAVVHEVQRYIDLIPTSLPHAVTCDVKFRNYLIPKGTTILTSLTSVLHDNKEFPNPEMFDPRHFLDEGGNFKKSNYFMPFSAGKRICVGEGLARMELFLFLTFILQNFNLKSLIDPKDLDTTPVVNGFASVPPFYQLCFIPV
- procedureDetails: Vivid CYP2C19 blue fluorescent assay
pIC50: −log10 of the molar value.
# key: entry, value: pIC50
reportedEndpoint: pIC50

[[record]]
compound = "CC(C)=CCC[C@](C)(O[C@@H]1O[C@H](CO)[C@@H](O)[C@H](O)[C@H]1O)[C@H]1CC[C@]2(C)[C@@H]1[C@H](O)C[C@@H]1[C@@]3(C)CC[C@H](O[C@@H]4O[C@H](CO)[C@@H](O)[C@H](O)[C@H]4O[C@@H]4O[C@H](CO)[C@@H](O)[C@H](O)[C@H]4O)C(C)(C)[C@@H]3CC[C@]12C"
studytarget = "CYP2C19 (Homo sapiens, UniProt P33261)"
relation = "<"
quantitativereadout = 4.00

[[record]]
compound = "CC(C)(O)CCC[C@@](C)(O)[C@H]1CC[C@]2(C)[C@@H]1[C@H](O)C[C@@H]1[C@@]3(C)CC[C@H](O)C(C)(C)[C@@H]3CC[C@]12C [20(R)-25-OH-PPD, 20(R)-dammarane-3β, 12β, 20, 25-tetrol]"
studytarget = "CYP2C19 (Homo sapiens, UniProt P33261)"
relation = "="
quantitativereadout = 4.16

[[record]]
compound = "CC(C)=CCC[C@](C)(O[C@@H]1O[C@H](CO)[C@@H](O)[C@H](O)[C@H]1O)[C@H]1CC[C@]2(C)[C@@H]1[C@H](O)C[C@@H]1[C@@]3(C)CC[C@H](O)C(C)(C)[C@@H]3[C@@H](O[C@@H]3O[C@H](CO)[C@@H](O)[C@H](O)[C@H]3O[C@@H]3O[C@@H](C)[C@H](O)[C@@H](O)[C@H]3O)C[C@]12C"
studytarget = "CYP2C19 (Homo sapiens, UniProt P33261)"
relation = "<"
quantitativereadout = 4.00

[[record]]
compound = "CC(C)=CCC[C@](C)(O[C@@H]1O[C@H](CO)[C@@H](O)[C@H](O)[C@H]1O)[C@H]1CC[C@]2(C)[C@@H]1[C@H](O)C[C@@H]1[C@@]3(C)CC[C@H](O)C(C)(C)[C@@H]3CC[C@]12C [C-K, ginsenoside Compound K]"
studytarget = "CYP2C19 (Homo sapiens, UniProt P33261)"
relation = "="
quantitativereadout = 4.34

[[record]]
compound = "CC(C)=CCC[C@@](C)(O)[C@H]1CC[C@]2(C)[C@@H]1[C@H](O)C[C@@H]1[C@@]3(C)CC[C@H](O)C(C)(C)[C@@H]3CC[C@]12C [20(R)-PPD]"
studytarget = "CYP2C19 (Homo sapiens, UniProt P33261)"
relation = "="
quantitativereadout = 4.72

[[record]]
compound = "CC(C)=CCC[C@](C)(O[C@@H]1O[C@H](CO[C@@H]2OC[C@@H](O)[C@H](O)[C@H]2O)[C@@H](O)[C@H](O)[C@H]1O)[C@H]1CC[C@]2(C)[C@@H]1[C@H](O)C[C@@H]1[C@@]3(C)CC[C@H](O[C@@H]4O[C@H](CO)[C@@H](O)[C@H](O)[C@H]4O[C@@H]4O[C@H](CO)[C@@H](O)[C@H](O)[C@H]4O)C(C)(C)[C@@H]3CC[C@]12C"
studytarget = "CYP2C19 (Homo sapiens, UniProt P33261)"
relation = "<"
quantitativereadout = 4.00

[[record]]
compound = "CC(C)=CCC[C@](C)(O)[C@H]1CC[C@]2(C)[C@@H]1[C@H](O)C[C@@H]1[C@@]3(C)CC[C@H](O[C@@H]4O[C@H](CO)[C@@H](O)[C@H](O)[C@H]4O)C(C)(C)[C@@H]3CC[C@]12C"
studytarget = "CYP2C19 (Homo sapiens, UniProt P33261)"
relation = "="
quantitativereadout = 4.30

[[record]]
compound = "CC(C)(O)CCC[C@@](C)(O)[C@H]1CC[C@]2(C)[C@@H]1[C@H](O)C[C@@H]1[C@@]3(C)CC[C@H](O)C(C)(C)[C@@H]3[C@@H](O)C[C@]12C [20(R)-25-OH-PPT]"
studytarget = "CYP2C19 (Homo sapiens, UniProt P33261)"
relation = "="
quantitativereadout = 4.36

[[record]]
compound = "CC(C)=CCC[C@](C)(O[C@@H]1O[C@H](CO)[C@@H](O)[C@H](O)[C@H]1O)[C@H]1CC[C@]2(C)[C@@H]1[C@H](O)C[C@@H]1[C@@]3(C)CC[C@H](O)C(C)(C)[C@@H]3[C@@H](O[C@@H]3O[C@H](CO)[C@@H](O)[C@H](O)[C@H]3O)C[C@]12C"
studytarget = "CYP2C19 (Homo sapiens, UniProt P33261)"
relation = "<"
quantitativereadout = 4.00

[[record]]
compound = "CC(C)=CCC[C@](C)(O)[C@H]1CC[C@]2(C)[C@@H]1[C@H](O)C[C@@H]1[C@@]3(C)CC[C@H](O)C(C)(C)[C@@H]3[C@@H](O)C[C@]12C"
studytarget = "CYP2C19 (Homo sapiens, UniProt P33261)"
relation = "="
quantitativereadout = 4.33

[[record]]
compound = "CC(C)=CCC[C@](C)(O)[C@H]1CC[C@]2(C)[C@@H]1[C@H](O)C[C@@H]1[C@@]3(C)CC[C@H](O)C(C)(C)[C@@H]3[C@@H](O[C@@H]3O[C@H](CO)[C@@H](O)[C@H](O)[C@H]3O[C@@H]3O[C@@H](C)[C@H](O)[C@@H](O)[C@H]3O)C[C@]12C"
studytarget = "CYP2C19 (Homo sapiens, UniProt P33261)"
relation = "<"
quantitativereadout = 4.00

[[record]]
compound = "CC(C)=CCC[C@](C)(O[C@@H]1O[C@H](CO[C@@H]2O[C@H](CO)[C@@H](O)[C@H](O)[C@H]2O)[C@@H](O)[C@H](O)[C@H]1O)[C@H]1CC[C@]2(C)[C@@H]1[C@H](O)C[C@@H]1[C@@]3(C)CC[C@H](O[C@@H]4O[C@H](CO)[C@@H](O)[C@H](O)[C@H]4O[C@@H]4O[C@H](CO)[C@@H](O)[C@H](O)[C@H]4O)C(C)(C)[C@@H]3CC[C@]12C"
studytarget = "CYP2C19 (Homo sapiens, UniProt P33261)"
relation = "<"
quantitativereadout = 4.00

[[record]]
compound = "CC(C)=CCC[C@](C)(O)[C@H]1CC[C@]2(C)[C@@H]1[C@H](O)C[C@@H]1[C@@]3(C)CC[C@H](O[C@@H]4O[C@H](CO)[C@@H](O)[C@H](O)[C@H]4O[C@@H]4O[C@H](CO)[C@@H](O)[C@H](O)[C@H]4O)C(C)(C)[C@@H]3CC[C@]12C"
studytarget = "CYP2C19 (Homo sapiens, UniProt P33261)"
relation = "="
quantitativereadout = 4.33

[[record]]
compound = "COC(C)(C)CCC[C@](C)(O)[C@H]1CC[C@]2(C)[C@@H]1[C@H](O)C[C@@H]1[C@@]3(C)CC[C@H](O)C(C)(C)[C@@H]3CC[C@]12C"
studytarget = "CYP2C19 (Homo sapiens, UniProt P33261)"
relation = "="
quantitativereadout = 4.58

[[record]]
compound = "CC(C)=CCC[C@](C)(O)[C@H]1CC[C@]2(C)[C@@H]1[C@H](O)C[C@@H]1[C@@]3(C)CC[C@H](O)C(C)(C)[C@@H]3CC[C@]12C"
studytarget = "CYP2C19 (Homo sapiens, UniProt P33261)"
relation = "="
quantitativereadout = 4.28

